Taken from PubChem BioAssay (EPA / NIEHS).

- TEST_TARGET: Estrogen receptor (Homo sapiens) + Estrogen receptor beta (Homo sapiens) (UniProt P03372+Q92731)
- Sequence (P03372 whole entry, looked up): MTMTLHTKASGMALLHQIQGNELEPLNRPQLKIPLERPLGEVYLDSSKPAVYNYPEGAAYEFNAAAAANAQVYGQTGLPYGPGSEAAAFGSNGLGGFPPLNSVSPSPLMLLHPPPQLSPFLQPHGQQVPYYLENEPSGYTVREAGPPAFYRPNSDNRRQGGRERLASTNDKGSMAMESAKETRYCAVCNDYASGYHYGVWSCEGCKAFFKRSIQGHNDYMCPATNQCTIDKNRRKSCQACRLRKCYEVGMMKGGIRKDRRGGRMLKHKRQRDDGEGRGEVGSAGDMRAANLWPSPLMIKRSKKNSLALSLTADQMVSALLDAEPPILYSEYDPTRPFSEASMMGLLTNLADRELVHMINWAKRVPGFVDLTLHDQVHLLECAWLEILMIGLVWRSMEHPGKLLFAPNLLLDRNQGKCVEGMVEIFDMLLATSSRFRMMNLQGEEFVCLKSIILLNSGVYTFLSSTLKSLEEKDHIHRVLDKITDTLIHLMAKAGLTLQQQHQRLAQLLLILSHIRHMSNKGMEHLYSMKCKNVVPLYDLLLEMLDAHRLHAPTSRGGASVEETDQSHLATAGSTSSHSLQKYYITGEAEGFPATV
- Sequence (Q92731 whole entry, looked up): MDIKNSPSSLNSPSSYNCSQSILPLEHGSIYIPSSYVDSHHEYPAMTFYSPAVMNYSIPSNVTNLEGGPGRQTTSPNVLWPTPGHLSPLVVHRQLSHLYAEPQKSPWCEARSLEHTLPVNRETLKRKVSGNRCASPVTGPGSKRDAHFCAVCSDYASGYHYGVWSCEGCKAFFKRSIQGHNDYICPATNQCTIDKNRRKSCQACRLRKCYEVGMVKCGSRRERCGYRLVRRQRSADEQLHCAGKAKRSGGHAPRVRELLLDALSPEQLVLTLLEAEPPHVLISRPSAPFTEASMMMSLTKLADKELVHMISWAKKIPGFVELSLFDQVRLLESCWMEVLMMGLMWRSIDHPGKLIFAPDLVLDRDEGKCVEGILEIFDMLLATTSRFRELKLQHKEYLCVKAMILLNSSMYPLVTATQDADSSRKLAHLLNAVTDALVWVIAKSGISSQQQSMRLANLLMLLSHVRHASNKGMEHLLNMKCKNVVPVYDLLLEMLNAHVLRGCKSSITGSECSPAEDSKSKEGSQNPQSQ
- METHOD_DESCRIPTION: OT_ER_ERaERb_0480: Odyssey Thera (OT) 8-hour HEK293T Protein-Complementation Assay for Estrogen Receptor-alpha/-beta Heterodimer (AID 2283352)
Inconclusive results are not listed. The source made the active and inactive calls. The calls were made as follows: active = hit-call score of the fitted dose curve at least 0.9, where 1 is the maximum; inconclusive = response in the unintended direction; inactive = score below 0.9.
Classes to choose from: Yes (active), No (inactive)

molecule=CCCCCCCC[N+](C)(CCCCCCCC)CCCCCCCC label=No
molecule=CC(C)=CCC[C@H](C)CCO label=No
molecule=OC1CCCC1 label=No
molecule="CC1=NN(c2cc(S(=O)(=O)O)ccc2Cl)C(=O)C1N=Nc1ccccc1 (stereo not drawn)" label=No

q: Query: recorded result category for "O=C(c1ccccc1)C1CCC1" in this test
a: No

q: Again, but for "CC(C)(C)c1ccc(N)cc1"
a: No

q: Again, but for "CCCCC/C=C\C/C=C\CCCCCCCC(=O)OC"
a: No

q: Again, but for "Cn1c([N+](=O)[O-])cnc1COC(N)=O"
a: No

q: Again, but for "Cc1cc(C)c(C(=O)O)c(C)c1"
a: No

q: Again, but for CCCCC(CC)CCC(CC(C)C)OS(=O)(=O)O (stereo not drawn)
a: No

q: Again, but for "Cc1ccc(N/N=c2\c(=O)cc/c(=N/Nc3ccc(S(=O)(=O)O)cc3)c2=O)c(C)c1"
a: No

q: Again, but for "O=S1(=O)OC(c2ccc(O)cc2)(c2ccc(O)cc2)c2ccccc21"
a: No

q: Again, but for "COC(=O)c1c(C)cc(O)c(C)c1O"
a: Yes

q: Again, but for "CCOC(=O)Cc1cccc2ccccc12"
a: Yes

q: Again, but for "CC(=O)[C@H]1[C@H](C#N)C[C@H]2[C@@H]3CC=C4C[C@@H](O)CC[C@]4(C)[C@H]3CC[C@@]21C"
a: No
